System: U-2 OS
Assay: cell painting activity score (Mahalanobis distance from DMSO wells); higher = stronger morphological phenotype
Conditions: 2.5 µM; 24 h
assay-endpoint: cell painting activity score

Q: Which cell painting activity score is listed for ClC1=CC=C(C2=CSC(N/N=C3CCCC/3)=N2)C=C1 ?
Result: 4.44

Q: Which cell painting activity score is listed for COc1cc(OC)c2ccccc2c1C=C1C(=O)NC(=S)NC1=O ?
Result: 16.1

Q: Which cell painting activity score is listed for COc1cc([C@@H]2c3cc4c(cc3[C@@H](O[C@@H]3O[C@@H]5CO[C@@H](C)O[C@H]5[C@H](O)[C@H]3O)[C@H]3COC(=O)[C@H]23)OCO4)cc(OC)c1O ?
Result: 12.9

Q: Which cell painting activity score is listed for O=NN(CCCl)C(=O)NCCCl ?
Result: 5.44

Q: Which cell painting activity score is listed for O=c1c(O)c(-c2ccc(O)c(O)c2)oc2cc(O)ccc12 ?
Result: 4.93

Q: Which cell painting activity score is listed for CC(C)(C)c1cc(O)ccc1O ?
Result: 5.45

---

Tested on: U-2 OS
Assay: relative cell count vs DMSO (cell painting) (fraction of DMSO control); higher = more cells remaining (less cytotoxic)
Conditions: 5 µM; 24 h
assay-endpoint: relative cell count
Respond with the number and no other words.

Q: Which relative cell count is listed for O=S1(=O)CC(N2CCCC2)c2ccccc21 (configuration not stated) ?
Result: 0.962

Q: Which relative cell count is listed for CCCC1(c2ccccc2)NC(=O)N(CC(=O)N(C)Cc2c(F)cccc2Cl)C1=O (configuration not stated) ?
Result: 1.03

Q: Which relative cell count is listed for COc1cc2c(c(OC)c1OC)-c1ccc(OC)c(=O)cc1[C@@H](NC(C)=O)CC2 ?
Result: 0.209

Q: Which relative cell count is listed for CCOC(=O)C1=C(C)NC(=S)N[C@@H]1c1cccc(O)c1 ?
Result: 0.941

Q: Which relative cell count is listed for O=C1c2ccccc2[Se](=O)N1c1ccccc1 (configuration not stated) ?
Result: 0.954

Q: Which relative cell count is listed for CN1CCN(CCOc2cc(OC3CCOCC3)c3c(Nc4c(Cl)ccc5c4OCO5)ncnc3c2)CC1 ?
Result: 0.997

Q: Which relative cell count is listed for c1cc(SSc2ccns2)sn1 ?
Result: 0.635

Q: Which relative cell count is listed for O=C([O-])C(=O)[O-].[NH-][C@@H]1CCCC[C@H]1[NH-].[Pt+4] ?
Result: 0.501

Q: Which relative cell count is listed for CC(C)(C)C(=O)OCOc1cccc2c1C(=O)C1C3C=CC(CC3)C1C2=O (configuration not stated) ?
Result: 0.929

Q: Which relative cell count is listed for CC1(C)CC[C@]2(C(=O)O[C@@H]3O[C@H](CO)[C@@H](O)[C@H](O)[C@H]3O)CC[C@]3(C)C(=CC[C@@H]4[C@@]5(C)CC[C@H](O[C@@H]6O[C@H](C(=O)O)[C@@H](O)[C@H](O)[C@H]6O[C@@H]6O[C@H](CO)[C@@H](O)[C@H](O)[C@H]6O)C(C)(C)[C@@H]5CC[C@]43C)[C@@H]2C1 ?
Result: 0.938

Q: Which relative cell count is listed for O=C(O)C1(C(=O)O)CCC1.[NH2-].[NH2-].[Pt+2] ?
Result: 0.855

Q: Which relative cell count is listed for CC(=O)O[C@H]1C(=O)[C@@]2(C)[C@H]([C@H](OC(=O)c3ccccc3)[C@]3(O)C[C@H](OC(=O)[C@H](O)[C@@H](NC(=O)c4ccccc4)c4ccccc4)C(C)=C1C3(C)C)[C@]1(OC(C)=O)CO[C@@H]1C[C@@H]2O ?
Result: 0.222

Q: Which relative cell count is listed for O=S1(=O)CCc2ccccc21 ?
Result: 1.05

Q: Which relative cell count is listed for CN1C(=O)[C@]23CC4=CC=C[C@H](O)[C@H]4N2C(=O)[C@@]1(CO)SS3 ?
Result: 0.0047

Q: Which relative cell count is listed for CCOc1ccccc1-n1c(C(C)N2CCN(C(=O)COc3ccc(Cl)cc3)CC2)nc2ccccc2c1=O (configuration not stated) ?
Result: 0.969

Q: Which relative cell count is listed for Cn1c(=O)n(-c2ccc(C(C)(C)C#N)cc2)c2c3cc(-c4cnc5ccccc5c4)ccc3ncc21 ?
Result: 0.83

Q: Which relative cell count is listed for O=c1c(O)c(-c2ccc(O)c(O)c2)oc2cc(O)cc(O)c12 ?
Result: 0.962

---

System: U-2 OS
Experiment: total intracellular glutathione (GSH + GSSG) relative to DMSO (% of control); higher = more glutathione
Details: 80 µM; 24 h
Response key: Y means total intracellular glutathione >= 80; N means total intracellular glutathione < 80.

Q: Form field: total intracellular glutathione at least 80? Entry: c1cc(SSc2ccns2)sn1
Result: N

Q: Form field: total intracellular glutathione at least 80? Entry: O=C(O[C@@H]1Cc2c(O)cc(O)cc2O[C@@H]1c1cc(O)c(O)c(O)c1)c1cc(O)c(O)c(O)c1
Result: N

Q: Form field: total intracellular glutathione at least 80? Entry: CC1=CC(=O)c2ccccc2C1=O
Result: N

Q: Form field: total intracellular glutathione at least 80? Entry: COC1=CC=C(S(=O)(O/N=C2C=C(C(C(C)=C\2)=O)C)=O)C=C1
Result: N

Q: Form field: total intracellular glutathione at least 80? Entry: C=C1C(=O)O[C@H](CCC)[C@H]1C(=O)O
Result: Y

Q: Form field: total intracellular glutathione at least 80? Entry: O=C(/C(C(N1CC2=CC=CC=C2)=O)=C/C3=C(C)C=C(O)C=C3C)N(CC4=CC=CC=C4)C1=O
Result: N

Q: Form field: total intracellular glutathione at least 80? Entry: Cl.Cl.O=C(O)Cn1nnc(-c2ccc(CN(CCCCOc3ccc(CN4CCCC4)cc3)CCc3ccccc3)cc2)n1
Result: N

Q: Form field: total intracellular glutathione at least 80? Entry: O=C(OCC)/C(C(OCC)=O)=C\CCCCCCCCCCCCCC
Result: Y

Q: Form field: total intracellular glutathione at least 80? Entry: CC(=O)c1c(O)c(C)c(O)c(Cc2c(O)c3c(c(C(=O)C=Cc4ccccc4)c2O)OC(C)(C)C=C3)c1O
Result: Y

Q: Form field: total intracellular glutathione at least 80? Entry: CCCC[S@](=N)(=O)CC[C@H](N)C(=O)O
Result: N

Q: Form field: total intracellular glutathione at least 80? Entry: COc1ccc(/C(Cl)=C(/C=O)c2ccc(OC)cc2)cc1
Result: N

Q: Form field: total intracellular glutathione at least 80? Entry: CCCCCOc1ccc(/C=C\c2cccc(O)c2C(=O)O)cc1
Result: N

Q: Form field: total intracellular glutathione at least 80? Entry: Oc1cccc(O)c1O
Result: N

Q: Form field: total intracellular glutathione at least 80? Entry: CC1=NN(c2ccc(C(=O)O)cc2)C(=O)/C1=C\c1ccc(-c2cc(C)c(C)cc2[N+](=O)[O-])o1
Result: Y

Q: Form field: total intracellular glutathione at least 80? Entry: CCCCCCCCCCCCCCCc1cccc(O)c1C(=O)O
Result: Y

Q: Form field: total intracellular glutathione at least 80? Entry: CCCCCCCc1ccc(CCc2cccc(O)c2C(=O)O)cc1
Result: N

Q: Form field: total intracellular glutathione at least 80? Entry: C=C(C)[C@@H](CC=C(C)C)C[C@@]12C[C@@H](CC=C(C)C)C(C)(C)[C@@](CC=C(C)C)(C(=O)/C(=C(\O)c3ccc(O)c(O)c3)C1=O)C2=O
Result: N

Q: Form field: total intracellular glutathione at least 80? Entry: Cc1cc2c(C(C)C)c(O)c(O)c(C=O)c2c(O)c1-c1c(C)cc2c(C(C)C)c(O)c(O)c(C=O)c2c1O
Result: N

Q: Form field: total intracellular glutathione at least 80? Entry: COc1cc(/C=C/C(=O)CC(=O)/C=C/c2ccc(O)c(OC)c2)ccc1O
Result: N

Q: Form field: total intracellular glutathione at least 80? Entry: O=C1/C(=C/c2ccc(O)c(Br)c2)CCC/C1=C\c1ccc(O)c(Br)c1
Result: N

---

Tested on: U-2 OS
Assay: cell painting activity score (Mahalanobis distance from DMSO wells); higher = stronger morphological phenotype
Details: 1.25 µM; 24 h
assay-endpoint: cell painting activity score
Respond with the number and no other words.

Q: Which cell painting activity score is listed for COc1cc([C@@H]2c3cc4c(cc3[C@@H](O[C@@H]3O[C@@H]5CO[C@@H](C)O[C@H]5[C@H](O)[C@H]3O)[C@H]3COC(=O)[C@H]23)OCO4)cc(OC)c1O ?
Result: 14

Q: Which cell painting activity score is listed for C=CC(=O)Nc1cccc(Nc2nc(Nc3ccc(Oc4ccnc(C(=O)NC)c4)cc3)ncc2F)c1 ?
Result: 4.2

Q: Which cell painting activity score is listed for CC(C)(C)C1=CC(=O)C=CC1=O ?
Result: 9.82

Q: Which cell painting activity score is listed for O=C(OCC)/C(C(OCC)=O)=C\CCCCCCCCCCCCCC ?
Result: 5.19

Q: Which cell painting activity score is listed for C[C@@H]1CC[C@@]2(OC1)O[C@H]1[C@@H](O)[C@H]3[C@@H]4CC[C@H]5C[C@@H](O[C@@H]6O[C@H](CO)[C@H](O[C@@H]7O[C@H](CO)[C@@H](O)[C@H](O[C@@H]8OC[C@@H](O)[C@H](O)[C@H]8O)[C@H]7O[C@@H]7O[C@H](CO)[C@H](O)[C@H](O[C@@H]8O[C@H](CO)[C@@H](O)[C@H](O)[C@H]8O)[C@H]7O)[C@H](O)[C@H]6O)[C@H](O)C[C@]5(C)[C@H]4CC[C@]3(C)[C@H]1[C@@H]2C ?
Result: 7.32

Origin of measurements: the supplement of paper PMC10011410
